# assay-target: mTOR (Homo sapiens, UniProt P42345)
# Construct: endogenous in cells; host or cells: Jurkat cells (ATCC TIB-152, clone E6-1), lysate
# test: mTOR kinobeads assay (dot blot detection)
# Type: binding
# test-parameters: Table 4, read-out: Inhibition values (IC50) mTOR
As shown below, each of these compounds has a reported IC50 value.

Some compounds with recorded IC50:
Lookup: Form field: IC50 recorded for "C[C@H]1COCCN1c1nc(-c2ccc(NC(=O)NC3COC3)cc2)cc(-c2cc(F)ccc2S(C)(=O)=O)n1" with mTOR (Homo sapiens, UniProt P42345) (enter value)
Found: 100 to 1000 nM

Lookup: Form field: IC50 recorded for "C[C@H]1COCCN1c1cc(-c2cc(F)ccc2S(C)(=O)=O)nc(-c2ccc(NC(=O)NCCO)cc2)n1" with mTOR (Homo sapiens, UniProt P42345) (enter value)
Found: < 100 nM

Lookup: Form field: IC50 recorded for "C[C@H]1COCCN1c1nc(-c2ccc(NC(=O)N[C@H]3CCC[C@@H]3O)cc2)cc(-c2cc(F)ccc2S(C)(=O)=O)n1" with mTOR (Homo sapiens, UniProt P42345) (enter value)
Found: 100 to 1000 nM

Lookup: Form field: IC50 recorded for "C[C@H]1COCCN1c1nc(-c2ccc(NC(=O)NCCF)cc2)cc(-c2cc(F)ccc2S(C)(=O)=O)n1" with mTOR (Homo sapiens, UniProt P42345) (enter value)
Found: 100 to 1000 nM

Lookup: Form field: IC50 recorded for "CCS(=O)(=O)c1ccccc1-c1cc(-c2ccc(NC(=O)NC3CC3)cc2)nc(N2CCOC[C@@H]2C)n1" with mTOR (Homo sapiens, UniProt P42345) (enter value)
Found: 100 to 1000 nM

Lookup: Form field: IC50 recorded for "CCNC(=O)Nc1ccc(-c2cc(-c3cncc(S(C)(=O)=O)c3)nc(N3CCOC[C@@H]3C)n2)cc1" with mTOR (Homo sapiens, UniProt P42345) (enter value)
Found: 1000 to 10000 nM

Lookup: Form field: IC50 recorded for "CCNC(=O)Nc1ccc(-c2ccnc(N3CC4CCC(C3)O4)n2)cc1" with mTOR (Homo sapiens, UniProt P42345) (enter value)
Found: 1000 to 10000 nM

Lookup: Form field: IC50 recorded for "C[C@H]1COCCN1c1cc(-c2ccccn2)nc(-c2ccc(NC(=O)NC3CC3)cc2)n1" with mTOR (Homo sapiens, UniProt P42345) (enter value)
Found: 100 to 1000 nM

---
Lookup: Form field: IC50 recorded for "C[C@H]1COCCN1c1nc(-c2ccc(NC(=O)NC3CC3)cc2)cc(-c2ccccc2S(=O)(=O)N2CCCC2)n1" with mTOR (Homo sapiens, UniProt P42345) (enter value)
Found: 1000 to 10000 nM

Lookup: Form field: IC50 recorded for "C[C@H]1COCCN1c1cc(-c2ccccc2S(C)(=O)=O)nc(-c2ccc(NC(=O)NC3CC3)cc2)n1" with mTOR (Homo sapiens, UniProt P42345) (enter value)
Found: 100 to 1000 nM

Lookup: Form field: IC50 recorded for "CCCNC(=O)Nc1ccc(-c2nccc(N3CCOCC3)n2)cc1" with mTOR (Homo sapiens, UniProt P42345) (enter value)
Found: 1000 to 10000 nM

Lookup: Form field: IC50 recorded for "C[C@H]1COCCN1c1nc(-c2ccc(NC(=O)NCCCO)cc2)cc(-c2cc(F)ccc2S(C)(=O)=O)n1" with mTOR (Homo sapiens, UniProt P42345) (enter value)
Found: 100 to 1000 nM
